test: AUC in dog at 2 mg/kg, po; type: ADME, organism-based, Canis lupus familiaris; settings: in vivo
MEASURED_PROPERTY: AUC (µM·h)

# SMILES_INPUT, UOM, AUC
data = [
    ("CNC(=O)c1c(-c2ccc(F)cc2)oc2cc(N(C)S(C)(=O)=O)c(-c3ccc4c(n3)-c3cc5c(F)cccc5n3CC4)cc12", "µM·h", 9.2),
]

I = CNC(=O)c1c(-c2ccc(F)cc2)oc2cc(N(C)S(C)(=O)=O)c(-c3ccc4c(n3)-c3cc5c(F)cccc5n3CN4)cc12
II = CNC(=O)c1c(-c2ccc(F)cc2)oc2cc(N(C)S(C)(=O)=O)c(-c3ccc4ncn5c6cccc(F)c6cc5c4n3)cc12
III = CNC(=O)c1c(-c2ccc(F)cc2)oc2cc(N(C)S(C)(=O)=O)c(-c3ccc4ccn5c6cccc(F)c6cc5c4n3)cc12
// sort entries: AUC, high to low Give the labels in the order requested. II, III, I
(II: 9.4 µM·h, III: 6.3 µM·h, I: 2.3 µM·h)
